Species on record: Cavia porcellus
Experiment: Selectivity ratio between CCK-B and CCK-A receptor
Parameters: reference not given here
Each record here notes measured Selectivity ratio.
Form rule: numeric answer, no unit written next to it.

- Cc1cccc(NC(=O)NC2N=C(c3ccncc3)c3ccccc3N(C)C2=O)c1 (racemic): 7.5
- Cc1cccc(NC(=O)NC2N=C(c3ccccc3)c3ccccc3N(CCO)C2=O)c1 (racemic): 6
- CN1C(=O)C(NC(=O)Nc2ccc(Br)cc2)N=C(c2ccccc2)c2ccccc21 (racemic): 2.7
- CN1C(=O)C(NC(=O)Nc2cccc(Cl)c2)N=C(c2ccccc2)c2ccccc21 (racemic): 1
- CN1C(=O)[C@H](NC(=O)Nc2cccc(I)c2)N=C(c2ccccc2)c2ccccc21: 116

Dear colleague, I am looking for the recorded Selectivity ratio of the following compound: CN1C(=O)C(NC(=O)Nc2cccc(F)c2)N=C(c2ccccc2)c2ccccc21 (racemic) 0.2

Would you mind doing CN1C(=O)C(NC(=O)Nc2ccc3ccccc3n2)N=C(c2ccccc2)c2ccccc21 (stereo not drawn) as well? 7

Would you mind doing CCOC(=O)CN1C(=O)C(NC(=O)c2ccc(Cl)cc2)N=C(c2ccccc2F)c2ccccc21 (racemic) as well? 0.06

---

Species: Cavia porcellus
Assay: Selectivity ratio between CCK-B and CCK-A receptor
Design: reference not given here
PROPERTY NAME: Selectivity ratio

The following compounds have reported results that may help.
* CCN(CC)C[C@H](O)CN1C(=O)C(NC(=O)Nc2ccc(Cl)cc2)N=C(c2ccccc2)c2ccccc21 (mixture of isomers) | > 7
* CN1C(=O)C(NC(=O)Nc2ccccc2[N+](=O)[O-])N=C(c2ccccc2)c2ccccc21 (racemic) | < 0.01
* O=C(Nc1ccc(Cl)cc1)NC1N=C(c2ccccc2)c2ccccc2N(C[C@@H](O)CCl)C1=O (mixture of isomers) | > 500
* COc1cccc(NC(=O)N[C@H]2N=C(c3ccccc3)c3ccccc3N(C)C2=O)c1 | < 0.01

Then this compound:
Dear colleague, I am looking for the recorded Selectivity ratio of the following compound: Cc1cccc(NC(=O)NC2N=C(c3ccccc3)c3ccncc3N(C)C2=O)c1 (racemic) < 0.01

---

Reported values: pIC50 for UniProtKB P30551, one per item.
Sequence (P30551 whole entry): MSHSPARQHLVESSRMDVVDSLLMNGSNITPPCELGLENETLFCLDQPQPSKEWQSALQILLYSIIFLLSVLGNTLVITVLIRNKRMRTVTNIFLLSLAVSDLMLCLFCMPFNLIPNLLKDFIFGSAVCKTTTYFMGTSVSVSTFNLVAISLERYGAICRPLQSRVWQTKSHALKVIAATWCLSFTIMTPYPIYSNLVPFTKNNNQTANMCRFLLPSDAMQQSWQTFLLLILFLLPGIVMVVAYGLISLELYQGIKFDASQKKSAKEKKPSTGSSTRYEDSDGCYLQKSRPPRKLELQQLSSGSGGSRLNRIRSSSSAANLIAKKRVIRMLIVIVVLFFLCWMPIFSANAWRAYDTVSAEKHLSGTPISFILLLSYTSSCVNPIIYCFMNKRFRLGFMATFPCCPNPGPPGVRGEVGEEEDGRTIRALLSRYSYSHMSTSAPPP
Please treat pIC50 as minus the base-10 logarithm of the molar concentration.

The following molecules have reported results that may help.
- COc1cccc(NC(=O)NC2N=C(c3ccccc3)c3ccccc3N(CCN(C)C)C2=O)c1 (racemic): 5.51
- Cc1cccc(NC(=O)NC2N=C(c3ccccn3)c3ccccc3N(C)C2=O)c1 (centres undefined): 7.19

Then this molecule:
Dear colleague, I am looking for the recorded pIC50 of the following molecule: Cc1cccc(NC(=O)NC2N=C(c3cccnc3)c3ccccc3N(C)C2=O)c1 (racemic) 5.64

---

Species: Cavia porcellus
Test: Selectivity ratio between CCK-B and CCK-A receptor
Set-up: reference not given here
Each record here notes measured Selectivity ratio.
Form rule: numeric answer, no unit written next to it.

The following compounds have reported results that may help.
- CN1C(=O)[C@H](NC(=O)Nc2ccccc2Cl)N=C(c2ccccc2)c2ccccc21: 6.7
- CCNC(=O)CN1C(=O)C(NC(=O)Nc2ccc(Cl)cc2)N=C(c2ccccc2)c2ccccc21 (racemic): 191

Then this compound:
Dear colleague, I am looking for the recorded Selectivity ratio of the following compound: Cc1ccc(NC(=O)NC2N=C(c3ccccc3)c3ccccc3N(CC(=O)Nc3ccncc3)C2=O)cc1 (racemic) 21
